- targetOrTestSystem: ΔF508-CFTR (Homo sapiens, UniProt P13569, DEL508-508)
- Construct: host or cells: CFBE41o-, doxycycline-inducible
- Sequence (P13569 with tags, fused parts or gaps DEL508-508): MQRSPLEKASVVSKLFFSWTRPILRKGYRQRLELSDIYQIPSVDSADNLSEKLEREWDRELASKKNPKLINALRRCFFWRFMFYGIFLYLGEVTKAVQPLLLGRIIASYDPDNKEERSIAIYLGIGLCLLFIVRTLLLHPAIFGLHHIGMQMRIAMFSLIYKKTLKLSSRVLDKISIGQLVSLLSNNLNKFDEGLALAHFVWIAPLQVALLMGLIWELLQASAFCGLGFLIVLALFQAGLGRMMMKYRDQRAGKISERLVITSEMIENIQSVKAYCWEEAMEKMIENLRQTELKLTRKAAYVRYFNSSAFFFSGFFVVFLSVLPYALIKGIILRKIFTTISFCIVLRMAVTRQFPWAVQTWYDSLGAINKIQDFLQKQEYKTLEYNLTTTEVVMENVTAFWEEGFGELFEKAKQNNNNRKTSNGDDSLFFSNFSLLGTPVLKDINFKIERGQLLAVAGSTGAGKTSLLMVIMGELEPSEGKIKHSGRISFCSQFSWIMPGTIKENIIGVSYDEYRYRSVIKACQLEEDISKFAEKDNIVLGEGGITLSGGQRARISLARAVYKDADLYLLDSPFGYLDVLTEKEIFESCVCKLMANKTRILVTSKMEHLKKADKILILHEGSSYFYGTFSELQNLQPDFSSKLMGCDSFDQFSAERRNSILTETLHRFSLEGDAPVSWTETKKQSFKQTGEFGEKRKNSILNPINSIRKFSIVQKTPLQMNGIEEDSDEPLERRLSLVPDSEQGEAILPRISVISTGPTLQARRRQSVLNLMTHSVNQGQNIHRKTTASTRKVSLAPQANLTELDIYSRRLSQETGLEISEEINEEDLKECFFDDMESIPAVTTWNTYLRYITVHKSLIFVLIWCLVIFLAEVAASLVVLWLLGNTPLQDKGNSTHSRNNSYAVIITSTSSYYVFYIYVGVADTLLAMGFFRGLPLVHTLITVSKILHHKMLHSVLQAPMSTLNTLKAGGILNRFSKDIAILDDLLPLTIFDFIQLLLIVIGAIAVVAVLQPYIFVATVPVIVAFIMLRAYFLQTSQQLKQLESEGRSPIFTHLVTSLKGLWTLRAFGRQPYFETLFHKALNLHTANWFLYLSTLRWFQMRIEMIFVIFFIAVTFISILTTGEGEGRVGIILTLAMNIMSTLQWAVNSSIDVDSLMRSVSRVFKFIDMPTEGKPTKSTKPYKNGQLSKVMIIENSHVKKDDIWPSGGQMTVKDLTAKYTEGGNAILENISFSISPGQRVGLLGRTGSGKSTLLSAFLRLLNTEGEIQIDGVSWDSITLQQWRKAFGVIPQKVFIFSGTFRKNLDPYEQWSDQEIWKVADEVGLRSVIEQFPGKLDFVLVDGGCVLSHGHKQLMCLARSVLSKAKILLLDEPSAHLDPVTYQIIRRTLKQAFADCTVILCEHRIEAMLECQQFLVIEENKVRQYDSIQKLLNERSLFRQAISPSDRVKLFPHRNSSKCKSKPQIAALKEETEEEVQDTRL
- measurementNotes: CFTR cell surface levels using HRP-tagged ΔF508-CFTR expressing CFBE cells, intrinsic corrector capacity
- Format: cell-based
- reportedConditions: HRP-tagged ΔF508-CFTR CFBE41o- cells, compounds alone (intrinsic corrector capacity), 20 hours at 33° C.; read-out: EC50
- From the text: Measuring CFTR Cell Surface Levels Using HRP-Tagged AF508-CFTR Expressing CFBE Cells The HRP-tagged AF508-CFTR cell assay measures the expression of CFTR-ΔF508 at the plasma membrane. […] When HRP-tagged AF508-CFTR is present at the plasma membrane, the HRP enzyme activity can be measured. The amount of CFTR-ΔF508 that can be rescued to the plasma membrane is correlated with the amount of functional enzyme that can be measured. […]
pEC50: −log10 of the molar value.
Parameter threshold = 6. Response is Condition met when pEC50 meets or exceeds it, else Condition not met.

Study these solved cases before continuing.
compound | cat
Cc1nn(-c2ccccc2)c2nc(C(=O)O)cc(OCC3(S(C)(=O)=O)CCC3)c12 | Condition not met
Cc1cccc(-n2nc(C(C)C)c3c(N4CC5CN(CC#N)CC5C4)cc(C(=O)O)nc32)c1 (stereo not shown) | Condition not met
COCCOC1CCN(c2cc(C(=O)O)nc3c2c(C)nn3-c2ccccc2)CC1 | Condition not met
CC(C)c1nn(-c2cccc(N3CC(O)C3)c2)c2nc(C(=O)O)cc(-c3ccc(N4CCOCC4)cc3)c12 | Condition not met
Cc1nn(-c2ccccc2)c2nc(C(=O)O)cc(N3CCN(CC#N)CC3)c12 | Condition not met
COC(=O)N1CCC(n2nc(C(C)C)c3c(-c4ccc(N5CCOCC5)cc4)cc(C(=O)O)nc32)C1 (stereo not shown) | Condition not met

Determine whether measured pEC50 meets or exceeds 6 for `COCC1CCN(c2cc(C(=O)O)nc3c2c(C(C)C)nn3-c2ccc(F)cc2)CC1`
Condition met

Tell me whether pEC50 is at least 6 here: `Cc1cccc(-n2nc(C(C)C)c3c(N4CC(F)C4)cc(C(=O)O)nc32)c1`
Condition not met

Quick check, pEC50 >= 6? `CC(C)c1nn(-c2cccc(N3CCCC3)c2)c2nc(C(=O)O)cc(-c3ccc(N(C)C4CCOCC4)cc3)c12`
Condition met

Can `Cc1nn(-c2ccn(C)c(=O)c2)c2nc(C(=O)O)cc(-c3ccc(N4CCOCC4)cc3)c12` be said to have pEC50 at or above 6?
Condition not met

Reported pEC50 reaches at least 6 for `Cc1nn(-c2ccccc2)c2nc(C(=O)O)cc(-c3ccc(N4CCN(S(C)(=O)=O)CC4)cc3)c12` ?
Condition not met

====

- targetOrTestSystem: ΔF508-CFTR (Homo sapiens, UniProt P13569, DEL508-508)
- Construct: host or cells: CFBE41o-, doxycycline-inducible
- measurementNotes: CFTR cell surface levels using HRP-tagged ΔF508-CFTR expressing CFBE cells, in the presence of a co-corrector
- Type: cell-based
- reportedConditions: HRP-tagged ΔF508-CFTR expressing CFBE cells, in the presence of 3 μM co-corrector
Reported % Activation values are given for each entry in this list.
Report the value in % with no unit label.

smilesStructure | valueUnit | % Activation
N#CC1CCN(c2ccc(-c3cc(C(=O)O)nc4c3c([C@H]3C[C@H](F)C3)nn4-c3ccccc3)cn2)CC1 | % | 369.1
CC(C)c1nn(-c2ccc(F)cc2)c2nc(C(=O)O)cc(N3CCC(N(C)C(C)C)CC3)c12 | % | 306.6
CC(C)(C)c1nn(-c2ccccc2)c2nc(C(=O)O)cc(-c3ccc(N4CCOCC4)cc3)c12 | % | 340.8

Now turn to the next molecule.
Form: item `CC(C)c1nn(-c2cccc(F)c2)c2nc(C(=O)O)cc(-c3cnc(N(C)C4CCOCC4)nc3)c12` ; test system ΔF508-CFTR (Homo sapiens, UniProt P13569, DEL508-508); % Activation: 435.6
